Hello, the source for this data is patent US6630488B1, in case you need it.

target: placental αvβ3 (Homo sapiens, UniProt P05106+P06756); construct: purified active GP IIb-IIIa (Calbiochem) or olacental αvβ3 at 0.5 μg/ml; from tissue; host or cells: placenta; assay: Fibrinogen binding to immobilized αvβ3; details: biotinylated-fibrinogen 10 nM, immobilized placental αvβ3; read-out: IC50 values for the fibrinogen binding assay αvβ3
Sequence (P06756 31-889 limits assumed): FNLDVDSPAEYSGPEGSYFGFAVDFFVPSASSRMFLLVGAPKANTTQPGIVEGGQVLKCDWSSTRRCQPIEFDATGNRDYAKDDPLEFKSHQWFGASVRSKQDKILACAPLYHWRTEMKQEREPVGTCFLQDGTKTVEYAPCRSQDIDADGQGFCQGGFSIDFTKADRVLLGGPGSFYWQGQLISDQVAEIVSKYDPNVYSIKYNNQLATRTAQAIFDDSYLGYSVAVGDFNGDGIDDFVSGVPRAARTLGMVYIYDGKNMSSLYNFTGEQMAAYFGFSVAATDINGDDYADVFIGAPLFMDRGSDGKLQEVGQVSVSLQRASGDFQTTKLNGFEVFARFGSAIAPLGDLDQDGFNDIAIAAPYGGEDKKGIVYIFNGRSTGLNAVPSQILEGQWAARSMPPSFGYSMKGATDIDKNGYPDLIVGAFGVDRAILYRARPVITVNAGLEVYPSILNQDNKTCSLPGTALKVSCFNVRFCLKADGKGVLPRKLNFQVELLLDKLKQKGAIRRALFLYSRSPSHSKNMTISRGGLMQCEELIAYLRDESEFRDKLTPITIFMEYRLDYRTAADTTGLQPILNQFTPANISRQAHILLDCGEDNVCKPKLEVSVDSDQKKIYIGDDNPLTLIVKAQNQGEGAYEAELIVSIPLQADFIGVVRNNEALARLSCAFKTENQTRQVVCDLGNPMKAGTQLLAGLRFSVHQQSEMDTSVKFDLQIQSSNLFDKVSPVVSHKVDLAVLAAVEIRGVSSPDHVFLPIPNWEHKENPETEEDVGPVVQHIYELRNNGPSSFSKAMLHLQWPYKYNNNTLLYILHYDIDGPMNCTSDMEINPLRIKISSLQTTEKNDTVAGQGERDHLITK
Sequence (P06756 891-1048 partner limits assumed): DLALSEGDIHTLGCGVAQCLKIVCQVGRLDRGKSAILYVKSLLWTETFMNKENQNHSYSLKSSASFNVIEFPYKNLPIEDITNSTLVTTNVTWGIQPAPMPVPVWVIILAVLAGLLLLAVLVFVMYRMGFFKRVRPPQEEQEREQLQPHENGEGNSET
Sequence (P05106 27-788): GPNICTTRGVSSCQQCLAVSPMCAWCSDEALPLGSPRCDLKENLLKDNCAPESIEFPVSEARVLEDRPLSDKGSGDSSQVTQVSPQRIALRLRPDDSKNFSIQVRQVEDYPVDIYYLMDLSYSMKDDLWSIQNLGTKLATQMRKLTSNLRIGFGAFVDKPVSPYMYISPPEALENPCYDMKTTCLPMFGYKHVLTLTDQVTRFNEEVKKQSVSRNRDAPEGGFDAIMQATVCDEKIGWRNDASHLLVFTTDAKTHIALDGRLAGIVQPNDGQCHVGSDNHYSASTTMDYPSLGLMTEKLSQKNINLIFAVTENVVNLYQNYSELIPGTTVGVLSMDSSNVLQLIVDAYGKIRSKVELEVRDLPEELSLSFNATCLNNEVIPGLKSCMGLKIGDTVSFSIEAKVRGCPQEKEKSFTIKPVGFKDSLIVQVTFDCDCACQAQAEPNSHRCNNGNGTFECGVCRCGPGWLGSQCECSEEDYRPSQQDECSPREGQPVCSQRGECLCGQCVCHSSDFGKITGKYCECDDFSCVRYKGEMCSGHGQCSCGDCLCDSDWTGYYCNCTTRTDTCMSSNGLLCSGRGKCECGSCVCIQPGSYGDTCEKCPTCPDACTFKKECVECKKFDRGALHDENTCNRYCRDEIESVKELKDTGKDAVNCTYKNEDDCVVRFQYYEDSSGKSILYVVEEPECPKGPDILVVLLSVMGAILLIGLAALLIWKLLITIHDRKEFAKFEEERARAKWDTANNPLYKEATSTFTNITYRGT
pIC50: −log10 of the molar value. Counter-ions that a name gives are not always drawn.
Label MET for high-side pIC50 (at or above 5) and NOT MET for low-side pIC50 (below it).

Solved entries (count: 5):
NCCCCCOc1ccn2c(=O)cc(C(=O)NC[C@H](NS(=O)(=O)c3ccccc3)C(=O)O)cc2c1 [Compound XXXIV, Trifluoroacetic Acid Salt] : NOT MET
NCCCOc1ccc2cc(C(=O)NC[C@H](NS(=O)(=O)c3ccccc3)C(=O)O)cc(=O)n2c1 [Compound XIV, Trifluoroacetic Acid Salt] : NOT MET
O=C(O)CC(NC(=O)c1ccc2ccc(OCCCNC(=O)OCc3ccccc3)cn2c1=O)c1ccccc1 (racemic) : NOT MET
CNC(=O)NCCCOc1ccc2cc(C(=O)NC[C@H](NS(=O)(=O)c3ccccc3)C(=O)O)cc(=O)n2c1 : MET
N=C(N)NC1CCC(Nc2ccn3c(=O)c(C(=O)NC(CC(=O)O)c4ccccc4)ccc3c2)CC1 (racemic) [Compound XLI, Trifluoroacetic Acid Salt] : NOT MET

## Task Determine whether measured pIC50 meets or exceeds 5 for N=C(N)NCc1ccc2cc(C(=O)NC[C@H](NC(=O)OCc3ccccc3)C(=O)O)cc(=O)n2c1 [Compound XLVIII, trifluoroacetic acid salt]
## Result MET

----------
Provide the reported log10 IC50 of each item.
target: GP IIb-IIIa (αIIbβ3) (Homo sapiens, UniProt P05106+P08514); construct: purchased Calbiochem; assay: Fibrinogen binding to immobilized GP IIb-IIIa (αIIbβ3); settings: biotinylated-fibrinogen 10 nM, immobilized GP IIb-IIIa; read-out: IC50 values for the fibrinogen binding assay αIIbβ3
Sequence (P08514 32-887 limits assumed, one chain of several): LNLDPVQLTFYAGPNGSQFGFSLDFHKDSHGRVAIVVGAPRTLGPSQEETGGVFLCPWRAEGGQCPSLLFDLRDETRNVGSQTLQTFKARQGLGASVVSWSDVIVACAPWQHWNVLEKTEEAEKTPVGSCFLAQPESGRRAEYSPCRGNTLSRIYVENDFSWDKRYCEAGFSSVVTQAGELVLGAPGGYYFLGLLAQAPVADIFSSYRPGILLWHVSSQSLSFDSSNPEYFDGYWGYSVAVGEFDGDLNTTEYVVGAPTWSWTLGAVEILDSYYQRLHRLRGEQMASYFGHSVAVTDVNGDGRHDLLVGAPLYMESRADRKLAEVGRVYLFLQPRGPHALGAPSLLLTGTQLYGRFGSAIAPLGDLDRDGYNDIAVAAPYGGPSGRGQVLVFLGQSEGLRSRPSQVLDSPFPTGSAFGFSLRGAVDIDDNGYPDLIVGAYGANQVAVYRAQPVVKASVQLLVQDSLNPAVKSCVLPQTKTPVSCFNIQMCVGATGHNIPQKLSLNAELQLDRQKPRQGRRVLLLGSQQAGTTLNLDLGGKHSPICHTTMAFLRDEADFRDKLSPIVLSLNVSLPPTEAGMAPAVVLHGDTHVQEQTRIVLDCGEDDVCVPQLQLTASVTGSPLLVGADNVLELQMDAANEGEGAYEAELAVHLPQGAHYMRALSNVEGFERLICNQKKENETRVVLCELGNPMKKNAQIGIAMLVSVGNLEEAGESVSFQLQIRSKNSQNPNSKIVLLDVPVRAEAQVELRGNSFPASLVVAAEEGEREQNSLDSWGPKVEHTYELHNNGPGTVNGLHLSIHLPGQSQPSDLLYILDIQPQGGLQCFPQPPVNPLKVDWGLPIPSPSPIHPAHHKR
Sequence (P08514 891-1039 partner limits assumed, one chain of several): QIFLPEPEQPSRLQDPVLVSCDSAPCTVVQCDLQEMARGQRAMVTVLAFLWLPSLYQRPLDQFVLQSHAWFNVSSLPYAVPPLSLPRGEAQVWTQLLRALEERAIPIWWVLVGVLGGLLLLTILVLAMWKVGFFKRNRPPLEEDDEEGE
Structures can show the parent of a compound that is named as a salt.
Values below are the log10 of the recorded IC50, with nM as the unit.

CN([C@@H](CNC(=O)c1cc(=O)n2cc(OCCCN)ccc2c1)C(=O)O)S(=O)(=O)c1ccccc1 [Compound XXIII, Trifluoroacetic Acid Salt] : 2.91
NCCCOc1ccc2ccc(NC(=O)NC[C@H](NS(=O)(=O)c3ccccc3)C(=O)O)c(=O)n2c1 [Compound VII] : 0.26
N=C(N)NCC1CCc2cc(C(=O)NCC(NS(=O)(=O)c3ccccc3)C(=O)O)cc(=O)n2C1 (stereo not drawn) [Compound XXIX] : 1.97
NCCOc1ccc2cc(C(=O)NC[C@H](NS(=O)(=O)c3ccccc3)C(=O)O)cc(=O)n2c1 [Compound XIX, Trifluoroacetic Acid Salt] : 1.46
N=C(N)NCCCOc1ccc2ccc(NC(=O)NC[C@H](NS(=O)(=O)c3ccccc3)C(=O)O)c(=O)n2c1 [Compound IX, Trifluoroacetate Salt] : 0.98

Let us move to another entry and its log10 IC50.
## Task Please list log10 IC50 recorded for the molecule N=C(N)NCCCOc1ccn2c(=O)cc(C(=O)NC[C@H](NS(=O)(=O)c3ccccc3)C(=O)O)cc2c1 [Compound XXXI, Hydrochloride]
## Result 1.38

----------
Provide the reported CAM inhibition of capillary formation of each item.
tested on: Chick Chorioallantoic Membrane (CAM) capillary formation; assay: Chick chorioallantoic membrane (CAM) mesh assay; assay type: in vivo, chicken; conditions: 33 μg/mesh, +VPF; Day 12, 24 hr treatment
Structures can show the parent of a compound that is named as a salt.
Answers are plain numbers, in %.

N=C(N)NCCCOc1ccc2cc(C(=O)NC[C@H](NS(=O)(=O)c3ccccc3)C(=O)O)cc(=O)n2c1 [Compound XV, Hydrochloride] : 10
Cl.N=C(N)NCc1ccc2cc(C(=O)NC[C@H](NS(=O)(=O)c3ccccc3)C(=O)O)cc(=O)n2c1 : 19
N=C(N)NCC1CCc2cc(C(=O)NCC(NS(=O)(=O)c3ccccc3)C(=O)O)cc(=O)n2C1 (centres unmarked) : 14
NCCCOc1ccc2ccc(C(=O)N[C@H]3CCCC[C@@H]3C(=O)O)c(=O)n2c1.O=C(O)C(F)(F)F (racemic) : 20

Let us move to another entry and its CAM inhibition of capillary formation.
## Task Please list CAM inhibition of capillary formation recorded for the compound N=C(N)N1CCN(c2ccn3c(=O)c(C(=O)NC(CC(=O)O)c4ccccc4)ccc3c2)CC1.O=C(O)C(F)(F)F (racemic)
## Result 11
